type: in vivo, human; conditions: human, plasma, po, tmax, MTX 12.5 mg oral + Apremilast 30 mg Q12H (Day 8), plasma, N = 1
measured-property: tmax (h)
Respond with the bare value in h.

(Q) Could you share which tmax value was measured for CN(Cc1cnc2nc(N)nc(N)c2n1)c1ccc(C(=O)N[C@@H](CCC(=O)O)C(=O)O)cc1 [MTX, methotrexate, reference compound] ?
(A) 2.07

* * *

type: in vivo, human; conditions: human, plasma, po, 17.5 mg, t1/2, MTX 17.5 mg oral alone (Day 1), plasma, N = 1
measured-property: half-life
Note to self: number, then unit, no commentary.

(Q) Which half-life value is on record for CN(Cc1cnc2nc(N)nc(N)c2n1)c1ccc(C(=O)N[C@@H](CCC(=O)O)C(=O)O)cc1 [MTX, methotrexate, reference compound] ?
(A) 5.6 h

Data origin, for the record: paper PMC4467241
